Reference source: ChEMBL document CHEMBL4513216

assay: Toxicity liver stage against HepG2, at 10uM; type: cell-based; design: test concentration 10 uM, cell line HepG2-A16-CD81EGFP; details: human, HepG2-A16-CD81EGFP cells; read-out: INHIBITION
Listed here are compounds together with their documented cytotoxicity at 10 µM.
QUANTITY_MEASURED: cytotoxicity at 10 µM (%)

- COMPOUND: "CN1CCN(S(=O)(=O)c2ccc(Cl)c(Cl)c2)c2cnccc21"
  QUANTITY_MEASURED: "cytotoxicity at 10 µM"
  NUMBER: 5.57
- COMPOUND: "O=C(O)C(c1ccc2c(c1)OCCO2)N1CCCC1 (stereo not drawn)"
  QUANTITY_MEASURED: "cytotoxicity at 10 µM"
  NUMBER: -5.38
- COMPOUND: "COc1ccccc1OCC(=O)n1nc(C)c(C)c1C"
  QUANTITY_MEASURED: "cytotoxicity at 10 µM"
  NUMBER: -5.01
- COMPOUND: "Cc1nnc(Nc2cccc(C3CCN(Cc4ncc[nH]4)CC3)n2)s1"
  QUANTITY_MEASURED: "cytotoxicity at 10 µM"
  NUMBER: -24
- COMPOUND: "COC(=O)c1cc2n(n1)CCCN(C(=O)Cc1c[nH]c3ccccc13)C2"
  QUANTITY_MEASURED: "cytotoxicity at 10 µM"
  NUMBER: 2.61
- COMPOUND: "CC1(C)OC(=O)N(CC(=O)N2CCC(c3ccccc3F)C2)C1=O (stereo not drawn)"
  QUANTITY_MEASURED: "cytotoxicity at 10 µM"
  NUMBER: 0.189
- COMPOUND: "CN(C)C(=O)C1CCN(Cn2nc(-c3ccc(F)cc3)oc2=O)CC1"
  QUANTITY_MEASURED: "cytotoxicity at 10 µM"
  NUMBER: -2.06
- COMPOUND: "Cc1cc(C(=O)NCC2SCCc3ccccc32)no1 (stereo not drawn)"
  QUANTITY_MEASURED: "cytotoxicity at 10 µM"
  NUMBER: 3.41
- COMPOUND: "Cc1nn(C)c(C)c1NC(=O)CN1CCN(c2nccs2)C(C)C1 (stereo not drawn)"
  QUANTITY_MEASURED: "cytotoxicity at 10 µM"
  NUMBER: -5.55
- COMPOUND: "O=C1CCCN1CCCNCc1cc(O)c2cccc(Cl)c2n1"
  QUANTITY_MEASURED: "cytotoxicity at 10 µM"
  NUMBER: 4.05
- COMPOUND: "CCCC(C#N)NC(=O)Cc1csc(CC)n1 (stereo not drawn)"
  QUANTITY_MEASURED: "cytotoxicity at 10 µM"
  NUMBER: -2.08
- COMPOUND: "Cc1c(NCc2ccccc2C#N)cccc1S(=O)(=O)NC1CC1"
  QUANTITY_MEASURED: "cytotoxicity at 10 µM"
  NUMBER: 30.4
- COMPOUND: "CCN(CCCNC(=O)c1cc2cccc(F)c2o1)S(C)(=O)=O"
  QUANTITY_MEASURED: "cytotoxicity at 10 µM"
  NUMBER: 4.35
- COMPOUND: "Cc1noc(CN2C[C@@H]3CC[C@H]2CN(C2Cc4ccccc4C2)C3)n1"
  QUANTITY_MEASURED: "cytotoxicity at 10 µM"
  NUMBER: 3.3
- COMPOUND: "Cc1ccc(CC2COc3ccccc3C2)c(N)n1 (stereo not drawn)"
  QUANTITY_MEASURED: "cytotoxicity at 10 µM"
  NUMBER: -7.12
- COMPOUND: "CCc1nc(CC2CN(c3ncnc4nc(C)cc(C)c34)CCO2)no1 (stereo not drawn)"
  QUANTITY_MEASURED: "cytotoxicity at 10 µM"
  NUMBER: -5.79
- COMPOUND: "COCCN(CCC#N)S(=O)(=O)c1cc(F)ccc1F"
  QUANTITY_MEASURED: "cytotoxicity at 10 µM"
  NUMBER: -9.91
- COMPOUND: "Cc1nc(Nc2nnc(C)s2)cc(C2CCCN2S(C)(=O)=O)n1 (stereo not drawn)"
  QUANTITY_MEASURED: "cytotoxicity at 10 µM"
  NUMBER: -11.9
- COMPOUND: "Cc1ccc(-n2nnc(C(=O)NCC3CCCCC3)n2)cc1"
  QUANTITY_MEASURED: "cytotoxicity at 10 µM"
  NUMBER: -3.5
- COMPOUND: "O=C(c1nnn(-c2ccccc2)n1)N(CCO)CCO"
  QUANTITY_MEASURED: "cytotoxicity at 10 µM"
  NUMBER: -1.48
- COMPOUND: "O[C@H]1CC[C@@H](Cc2cc(-c3ccccc3)on2)O[C@@H]1CNCC1CC1"
  QUANTITY_MEASURED: "cytotoxicity at 10 µM"
  NUMBER: -6.21
- COMPOUND: "CNCC(=O)N1CCC(c2ccnc(Nc3ccc(C)cn3)n2)C1 (stereo not drawn)"
  QUANTITY_MEASURED: "cytotoxicity at 10 µM"
  NUMBER: -2.29
- COMPOUND: "CC(C)[C@@H]1CN(Cc2cnc(C3CCCCC3)nc2)C[C@H]1N(C)C"
  QUANTITY_MEASURED: "cytotoxicity at 10 µM"
  NUMBER: -3.18
- COMPOUND: "CC(C)c1nc(CN2CCN(CC3CCCO3)CC2)cs1 (stereo not drawn)"
  QUANTITY_MEASURED: "cytotoxicity at 10 µM"
  NUMBER: -1.52
- COMPOUND: "COc1ccccc1CC(=O)N1CCCC(c2cc(C)[nH]n2)C1 (stereo not drawn)"
  QUANTITY_MEASURED: "cytotoxicity at 10 µM"
  NUMBER: -21
- COMPOUND: "O=C(Nc1cn[nH]c1)N1CCCCCC1c1ccncc1 (stereo not drawn)"
  QUANTITY_MEASURED: "cytotoxicity at 10 µM"
  NUMBER: -3.4
- COMPOUND: "Cc1cc(C)n(CC2CCN(CC(O)Cn3cccn3)CC2)n1 (stereo not drawn)"
  QUANTITY_MEASURED: "cytotoxicity at 10 µM"
  NUMBER: -5.58
- COMPOUND: "CN(Cc1nc(Cc2cccc(C(F)(F)F)c2)no1)C1CCCCC1"
  QUANTITY_MEASURED: "cytotoxicity at 10 µM"
  NUMBER: 1.99
- COMPOUND: "CC(C)N(C)Cc1noc2c1CN(C(=O)c1cnccn1)CC2"
  QUANTITY_MEASURED: "cytotoxicity at 10 µM"
  NUMBER: 4.44
- COMPOUND: "CCCn1c(C)c(CC(=O)NCCC(N)=O)c2c1CC(C)(C)CC2=O"
  QUANTITY_MEASURED: "cytotoxicity at 10 µM"
  NUMBER: 9.36
- COMPOUND: "CCc1ccsc1C(=O)N1CCCN(Cc2cnn(CC)c2)CC1"
  QUANTITY_MEASURED: "cytotoxicity at 10 µM"
  NUMBER: 0.501
- COMPOUND: "Cc1ccc(C(=O)NS(=O)(=O)Cc2ccon2)c(C)c1"
  QUANTITY_MEASURED: "cytotoxicity at 10 µM"
  NUMBER: -3.16
- COMPOUND: "CCOc1ncnc2c1CCN(c1cc(C(F)(F)F)ncn1)CC2"
  QUANTITY_MEASURED: "cytotoxicity at 10 µM"
  NUMBER: 12.8
- COMPOUND: "O=C1OCCC1N1CCN(C(=O)Cc2c[nH]c3ccccc23)CC1 (stereo not drawn)"
  QUANTITY_MEASURED: "cytotoxicity at 10 µM"
  NUMBER: -7.03
- COMPOUND: "COc1ccccc1OCC(=O)NS(=O)(=O)c1ccccc1Br"
  QUANTITY_MEASURED: "cytotoxicity at 10 µM"
  NUMBER: -9.8
- COMPOUND: "Cc1cncc(NC(=O)c2ccc(CN3CC[C@H](O)C3)cc2)c1"
  QUANTITY_MEASURED: "cytotoxicity at 10 µM"
  NUMBER: 12.4
- COMPOUND: "CC(C)OCCCN(CC(=O)N1CCNCC1)C(=O)c1ccc(F)cc1"
  QUANTITY_MEASURED: "cytotoxicity at 10 µM"
  NUMBER: 8.85
- COMPOUND: "CCn1c(CN2CCCC2)nnc1C1CCN(S(=O)(=O)CC)CC1"
  QUANTITY_MEASURED: "cytotoxicity at 10 µM"
  NUMBER: -4.92
- COMPOUND: "CCN(CC1CCOC1)C(=O)Nc1ccc(OC)nc1 (stereo not drawn)"
  QUANTITY_MEASURED: "cytotoxicity at 10 µM"
  NUMBER: -4.2
- COMPOUND: "O=C1NCC2(CCCN(Cc3ccccc3F)C2)Oc2ccccc21 (stereo not drawn)"
  QUANTITY_MEASURED: "cytotoxicity at 10 µM"
  NUMBER: 6.12
- COMPOUND: "O=C(NCC1CC1)C1CCC2(CCN(C(=O)c3ccncc3)CC2)O1 (stereo not drawn)"
  QUANTITY_MEASURED: "cytotoxicity at 10 µM"
  NUMBER: -0.0368
- COMPOUND: "Cc1noc(Cl)c1CCC(=O)N1CCC(CC(N)=O)CC1"
  QUANTITY_MEASURED: "cytotoxicity at 10 µM"
  NUMBER: -0.0707
- COMPOUND: "O=C(NCC1CCCO1)c1nc2c(s1)CCCN2CC1CC1 (stereo not drawn)"
  QUANTITY_MEASURED: "cytotoxicity at 10 µM"
  NUMBER: -0.843
